From: the RNAGym collection of RNA variant scans (doi:10.1073/pnas.2313332121)

B1: TPR t1 (parent)
chain: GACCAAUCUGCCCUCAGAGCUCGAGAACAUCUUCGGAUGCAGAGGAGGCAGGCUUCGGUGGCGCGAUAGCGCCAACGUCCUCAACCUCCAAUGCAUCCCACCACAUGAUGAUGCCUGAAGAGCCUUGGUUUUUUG

Variants of: B1
Test: polymerase ribozyme fitness, log enrichment relative to wild type (log ratio); higher = more active; in vitro selection for triplet polymerase activity
Label rule, in plain words: polymerase ribozyme fitness (log ratio) of -2 and up is Satisfied, under -2 is Not satisfied.

In [3]: df
Out[3]:
                     mutation_label  class_assignment
0               C13U U21C C80U A90U         Satisfied
1                    C34U G39C A50G     Not satisfied
2                        C20G G113C         Satisfied
3                        G58C U133A         Satisfied
4  C28U G45A C70U G113A A118U U131C     Not satisfied
5   C12G C73A A74G C89A A111G G127U     Not satisfied
